Quick reference: log p of the listed items.
- assay_protocol: logP by LC-MS, method [b], acidic range pH 2.7
- Type: physicochemical
- conditions_used: pH 2.7

# annotated cases, reported log p shown
INSERT INTO measurements (compound_smiles, reported) VALUES
  ('O=C(Nc1cccc(Nc2ncc(Br)c(NC3CCC3)n2)c1)Oc1ccccc1', '2.51[b]'),
  ('Fc1cc(C(F)(F)F)ccc1Nc1ncc(Br)c(NC2CCC2)n1', '3.9[b]'),
  ('CC(=O)N(c1ccc(Nc2ncc(Br)c(NC3CCC3)n2)cc1)C1CC1', '1.9[b]'),
  ('O=C(c1ccc(Nc2ncc(Cl)c(NC3CCC3)n2)cc1)N1CCOCC1', '1.24[b]'),
  ('Clc1cc(Cl)cc(Nc2ncc(Br)c(NC3CCC3)n2)c1', '4.98[b]');

Recorded log p for "O=c1[nH]c2ccc(Nc3ncc(Br)c(NC4CCC4)n3)cc2o1" , please?
1.59[b]

Recorded log p for "Cc1cccc(Nc2ncc(Cl)c(NC3CCC3)n2)c1" , please?
2.33[b]

Recorded log p for "COc1cc(Nc2ncc(Br)c(NC3CCC3)n2)ccc1F" , please?
2.41[b]

Recorded log p for "N#Cc1cccc(Nc2ncc(Br)c(NC3CCC3)n2)c1" , please?
2.67[b]

* * *

- assay_protocol: logP by LC-MS, method [b], acidic range pH 2.7
- Type: physicochemical
- conditions_used: pH 2.7
Quick reference: log p of the listed items.

INSERT INTO assay_data (compound, reported) VALUES
  ('CN(C=O)c1ccc(Nc2ncc(Br)c(NC3CCC3)n2)cc1', '1.68[b]'),
  ('COc1ccc(Nc2ncc(Cl)c(NC3CCC3)n2)cc1', '1.75[b]'),
  ('CNC(=O)c1cccc(Nc2ncc(Cl)c(NC3CCC3)n2)c1', '1.5[b]'),
  ('CCC(=O)Nc1cccc(Nc2ncc(Br)c(NC3CCC3)n2)c1', '1.71[b]');

Recorded log p for "CC(C)(C)NC(=O)c1ccc(Nc2ncc(Br)c(NC3CCC3)n2)cc1" , please?
2.46[b]

Recorded log p for "Clc1ccc(Nc2ncc(Br)c(NC3CCC3)n2)cc1" , please?
2.99[b]

Recorded log p for "CCN(C)C(=O)c1ccc(Nc2ncc(Cl)c(NC3CCC3)n2)cc1" , please?
1.85[b]

Recorded log p for "O=C(c1ccc(Nc2ncc(Cl)c(NC3CCC3)n2)cc1)N1CCCCC1" , please?
2.27[b]

Recorded log p for "O=C1CCc2cc(Nc3ncc(Br)c(NC4CCC4)n3)ccc2N1" , please?
1.49[b]

Recorded log p for Fc1ccc(Nc2ncc(Br)c(NC3CCC3)n2)cc1 [Compound 62] , please?
2.6[b]

Recorded log p for "FC(F)C(F)(F)Oc1cccc(Nc2ncc(Br)c(NC3CCC3)n2)c1" , please?
3.37[b]

Recorded log p for "O=C(c1ccc(Nc2ncc(C(F)(F)F)c(NC3CCC3)n2)cc1)N1CCCCC1" , please?
3.31[b]

Recorded log p for "CC(=O)N(c1ccc(Nc2ncc(Br)c(NC3CCC3)n2)cc1)C1CCCCC1" , please?
2.7[b]

* * *

- assay_protocol: logP by HPLC on reversed-phase columns (C 18), method [a], acidic range pH 2.3
- Assay type: physicochemical
- conditions_used: pH 2.3
Quick reference: log p of the listed items.

Recorded log p for "Ic1cnc(Nc2ccccc2)nc1NC1CCC1" , please?
2.19[a]

Recorded log p for "Cl.Clc1cccc(Nc2ncc(Cl)c(NC3CCC3)n2)c1" , please?
3.09^[a]

* * *

Quick reference: log p of the listed items.
- assay_protocol: physchem
- Assay type: physicochemical
- conditions_used: pH 7.8
Marks after values point to notes of the source that are not given here.

# annotated cases, reported log p shown
INSERT INTO assay_data (compound, reported) VALUES
  ('Fc1ccc(Nc2ncc(C(F)(F)F)c(NC3CCC3)n2)cc1', '4[c]'),
  ('CSc1cccc(Nc2ncc(C(F)(F)F)c(NC3CCC3)n2)c1', '4.36[c]');

Recorded log p for "CS(=O)(=O)c1cccc(Nc2ncc(Cl)c(NC3CCC3)n2)c1" , please?
2.63[c]

Recorded log p for "Fc1ccc(Nc2ncc(Cl)c(NC3CCC3)n2)cc1" , please?
3.7[c]

Recorded log p for "CC(=O)N(C)c1cccc(Nc2ncc(Cl)c(NC3CCC3)n2)c1" , please?
2.49[c]

* * *

- assay_protocol: physchem
- Type: physicochemical
- conditions_used: pH 7.8
property_measured: chromatographic logP
Respond numerically, and do not add a unit to the figure.

Recorded chromatographic logP for "FC(F)(F)c1cnc(Nc2ccccc2)nc1NC1CCC1" , please?
3.96

* * *

- assay_protocol: logP by LC-MS, method [b], acidic range pH 2.7
- Assay type: physicochemical
- conditions_used: pH 2.7
property_measured: log p

INSERT INTO measurements (compound, property_measured, reported) VALUES
  ('CN(C)S(=O)(=O)c1cccc(Nc2ncc(Br)c(NC3CCC3)n2)c1', 'log p', '2.53[b]');

Shift focus to the following entry.
Recorded log p for "CC(C)(C)C(=O)Cc1ccc(Nc2ncc(Br)c(NC3CCC3)n2)cc1" , please?
2.63[b]

* * *

Quick reference: log p of the listed items.
- assay_protocol: logP by LC-MS, method [b], acidic range pH 2.7
- Type: physicochemical
- conditions_used: pH 2.7

Recorded log p for CC(=O)c1cc(Nc2ncc(Br)c(NC3CCC3)n2)ccc1O [Compound 177] , please?
2.09[b]

* * *

- assay_protocol: logP by LC-MS, method [b], acidic range pH 2.7
- Format: physicochemical
- conditions_used: pH 2.7
property_measured: log p

# annotated cases, reported log p shown
INSERT INTO assay_data (compound, reported) VALUES
  ('O=C1CCCN1c1ccc(Nc2ncc(Cl)c(NC3CCC3)n2)cc1 [compound 133]', '1.66[b]'),
  ('CCOC(=O)Nc1ccc(Nc2ncc(Br)c(NC3CCC3)n2)cc1O [compound 151]', '1.8[b]'),
  ('CNC(=O)c1cccc(Nc2ncc(Br)c(NC3CCC3)n2)c1 [Compound 192]', '1.58[b]');

Recorded log p for O=C1OCCN1c1ccc(Nc2ncc(Cl)c(NC3CCC3)n2)cc1 [compound 132] , please?
1.59[b]

Recorded log p for N#CCc1cc(Nc2ncc(Br)c(NC3CCC3)n2)ccc1F [Compound 219] , please?
2.2[b]

Recorded log p for Brc1cnc(Nc2cccc(-c3nccs3)c2)nc1NC1CCC1 [Compound 33] , please?
2.8[b]

* * *

- assay_protocol: logP by LC-MS, method [b], acidic range pH 2.7
- Format: physicochemical
- conditions_used: pH 2.7
property_measured: log p

Recorded log p for CSc1ccc(Nc2ncc(Cl)c(NC3CCC3)n2)cc1Cl [compound 115] , please?
3.22[b]

Recorded log p for CC1(C(=O)Nc2cccc(Nc3ncc(Cl)c(NC4CCC4)n3)c2)CC1 [Compound 140] , please?
1.92[b]

Recorded log p for CNC(=O)Oc1cccc(Nc2ncc(Br)c(NC3CCC3)n2)c1 [Compound 196] , please?
1.75[b]

Recorded log p for Cc1cccc(Nc2ncc(Br)c(NC3CCC3)n2)c1 [Compound 224] , please?
2.55[b]

Recorded log p for Oc1ccc(Nc2ncc(Br)c(NC3CCC3)n2)c(F)c1 [Compound 80] , please?
1.55[b]

* * *

- assay_protocol: logP by HPLC on reversed-phase columns (C 18), method [a], acidic range pH 2.3
- Assay type: physicochemical
- conditions_used: pH 2.3
property_measured: chromatographic logP
Respond numerically, and do not add a unit to the figure.

INSERT INTO results (compound, property_measured, reported) VALUES
  ('FC(F)(F)c1cnc(Cl)nc1NC1CCC1', 'chromatographic logP', 3.2);

Recorded chromatographic logP for "Clc1ncc(Br)c(NC2CCC2)n1" , please?
2.87

Recorded chromatographic logP for "Clc1ncc(I)c(NC2CCC2)n1" , please?
3.08

Recorded chromatographic logP for "Clc1ncc(Cl)c(NC2CCC2)n1" , please?
2.62

* * *

Quick reference: log p of the listed items.
- assay_protocol: logP by LC-MS, method [b], acidic range pH 2.7
- Type: physicochemical
- conditions_used: pH 2.7

# annotated cases, reported log p shown
INSERT INTO results (compound_smiles, reported) VALUES
  ('CC1(Nc2nc(Nc3ccccc3)ncc2C(F)(F)F)CCC1', '3.36[b]'),
  ('COc1ccc(Nc2ncc(Br)c(NC3CCC3)n2)cc1', '1.8[b]'),
  ('FC(F)(F)Sc1ccc(Nc2ncc(Br)c(NC3CCC3)n2)cc1', '4.51[b]'),
  ('CC(C)Sc1cccc(Nc2ncc(Cl)c(NC3CCC3)n2)c1', '3.62[b]'),
  ('CC(=O)Nc1ccc(Nc2ncc(Cl)c(NC3CCC3)n2)cc1Cl', '1.78[b]'),
  ('Oc1ccc(Nc2ncc(Br)c(NC3CCC3)n2)cc1F', '1.5[b]');

Recorded log p for "O=C1OCCN1c1ccc(Nc2ncc(Br)c(NC3CCC3)n2)cc1" , please?
1.62[b]

Recorded log p for "CC(C)(C)c1cccc(Nc2ncc(C(F)(F)F)c(NC3CCC3)n2)c1" , please?
4.98[b]

Recorded log p for "CNc1ccc(Nc2ncc(Br)c(NC3CCC3)n2)cc1" , please?
1.18[b]
